The values you see were collected from ChEMBL document CHEMBL1125678.

- ASSAYED_SYSTEM: Aldo-keto reductase family 1 member B1 (Bos taurus) (UniProt P16116)
- MEASUREMENT_DESCRIPTION: In vitro inhibition of Aldose reductase in partially purified bovine lens preparation at a concentration of 4*10e -8M.
RECORDED_ENDPOINT: inhibition (%)
Note: unit % is implicit; provide only the numeric part.

With Aldo-keto reductase family 1 member B1 (Bos taurus) (UniProt P16116) as the test system, `O=C(O)Cn1c2ccc([N+](=O)[O-])cc2c(=O)n1Cc1ccc(Cl)c(Cl)c1` showed inhibition of 27

With Aldo-keto reductase family 1 member B1 (Bos taurus) (UniProt P16116) as the test system, `O=C(O)Cn1c2ccc([N+](=O)[O-])cc2c(=O)n1Cc1ccc(Br)cc1F` showed inhibition of 36

With Aldo-keto reductase family 1 member B1 (Bos taurus) (UniProt P16116) as the test system, `O=C(O)Cn1c2ccccc2c(=O)n1Cc1ccc(Br)cc1F` showed inhibition of 28

With Aldo-keto reductase family 1 member B1 (Bos taurus) (UniProt P16116) as the test system, `O=C(O)Cn1c(=O)c2cc(Br)ccc2n(Cc2ccc(Br)cc2F)c1=O` showed inhibition of 71

----------
- ASSAYED_SYSTEM: Aldo-keto reductase family 1 member B1 (Bos taurus)
- MEASUREMENT_DESCRIPTION: In vitro inhibition of aldose reductase in partially purified bovine lens preparation at a concentration of 10e -7M.
RECORDED_ENDPOINT: inhibition (%)
Note: unit % is implicit; provide only the numeric part.

Recorded inhibition (molecule `O=C(O)Cn1c(=O)c2cc([N+](=O)[O-])ccc2n(Cc2ccc(Br)cc2F)c1=O` ): 71

Recorded inhibition (molecule `O=C(O)Cn1c(=O)c2cc(Br)ccc2n(Cc2ccc(Br)cc2)c1=O` ): 59

Recorded inhibition (molecule `O=C(O)Cn1c(=O)c2ccc(Cl)cc2n(Cc2ccc(Br)cc2F)c1=O` ): 76

Recorded inhibition (molecule `Cc1nc2ccc(Br)cc2c(=O)n1CC(=O)O` ): 20

Recorded inhibition (molecule `COc1ccc2c(c1)c(=O)n(CC(=O)O)c(=O)n2Cc1ccc(Cl)c(Cl)c1` ): 85

Recorded inhibition (molecule `O=C(O)Cn1c(=O)c2ccc(F)cc2n(Cc2ccc(Br)cc2F)c1=O` ): 74

Recorded inhibition (molecule `O=C(O)CN1C(=O)N(Cc2ccc(Cl)c(Cl)c2)Cc2ccccc21` ): 53

Recorded inhibition (molecule `O=C(O)CN1CN(Cc2ccc(Br)cc2F)c2ccc(Cl)cc2C1=O` ): 51

Recorded inhibition (molecule `O=C(O)Cn1c(C(F)(F)F)nc2ccc(Br)cc2c1=O` ): 23

Recorded inhibition (molecule `O=C(O)Cn1c(=O)c2cc(Cl)ccc2n(Cc2ccc(Cl)c(Cl)c2)c1=O` ): 71

----------
- ASSAYED_SYSTEM: Aldo-keto reductase family 1 member B1 (Bos taurus) (UniProt P16116)
- MEASUREMENT_DESCRIPTION: In vitro inhibition of aldose reductase in partially purified bovine lens preparation at a concentration of 4*10e -8M.
// classify(record): look up inhibition in ranges I (below 30%), II (30% to below 50%), III (50% or more)

// query Any idea which band `Cc1c(C)n(Cc2ccc(Cl)c(Cl)c2)c(=O)n(CC(=O)O)c1=O` is in?
// result I

// query Any idea which band `O=C(O)Cn1c(=O)c2sccc2n(Cc2ccc(Br)cc2F)c1=O` is in?
// result II

// query Any idea which band `O=C(O)CN1Cc2ccccc2N(Cc2ccc(Cl)c(Cl)c2)C1=O` is in?
// result II

// query Any idea which band `COc1ccc(Cn2c(=O)n(CC(=O)O)c(=O)c3cc(Br)ccc32)cc1Br` is in?
// result II

// query Any idea which band `O=C(O)Cn1c(=O)c2ccccc2n(Cc2ccc(Br)cc2F)c1=O` is in?
// result II

// query Any idea which band `O=C(O)CN1CN(Cc2ccc(Br)cc2F)c2ccc(Cl)cc2C1=O` is in?
// result I

// query Any idea which band `O=C(O)CN1CN(Cc2ccc(Cl)c(Cl)c2)C(=O)c2cc(Cl)ccc21` is in?
// result III

// query Any idea which band `O=C(O)Cn1c(=O)n(Cc2ccc(Cl)c(Cl)c2)c(=O)c2c3c(sc21)CCCC3` is in?
// result III

// query Any idea which band `O=C(O)Cn1c(=O)n(Cc2ccc(Cl)c(Cl)c2)c(=O)c2cc(Cl)ccc21` is in?
// result III

// query Any idea which band `O=C(O)Cn1c(=O)c2ccc(Cl)cc2n(Cc2ccc(Br)cc2F)c1=O` is in?
// result III

// query Any idea which band `O=C(O)Cn1c(=O)c2cc(Br)ccc2n(Cc2ccc(Br)cc2)c1=O` is in?
// result II

// query Any idea which band `COc1ccc(Cn2c(=O)n(CC(=O)O)c(=O)c3cc(Br)ccc32)cc1` is in?
// result I

// query Any idea which band `O=C(O)Cn1c(=O)c2cccc(F)c2n(Cc2ccc(Br)cc2F)c1=O` is in?
// result III

// query Any idea which band `O=C(O)Cn1c(=O)c2c3c(sc2n(Cc2ccc(Cl)c(Cl)c2)c1=O)CCCC3` is in?
// result III

// query Any idea which band `O=C(O)Cn1c(=O)c2ccc(F)cc2n(Cc2ccc(Br)cc2F)c1=O` is in?
// result III

// query Any idea which band `O=C(O)Cn1c(=O)c2cc(Br)ccc2n(Cc2ccc(Cl)c(Cl)c2)c1=O` is in?
// result II

// query Any idea which band `O=C(O)Cn1c(=O)c2cc(Cl)ccc2n(Cc2ccc(Cl)c(Cl)c2)c1=O` is in?
// result I

// query Any idea which band `Cc1ccc2c(c1)c(=O)n(CC(=O)O)c(=O)n2Cc1ccc(Cl)c(Cl)c1` is in?
// result II

// query Any idea which band `O=C(O)Cn1c(=O)c2cc([N+](=O)[O-])ccc2n(Cc2ccc(Br)cc2F)c1=O` is in?
// result II

// query Any idea which band `O=C(O)Cn1c(=O)n(Cc2ccc(Cl)c(Cl)c2)c(=S)c2cc(Cl)ccc21` is in?
// result III

// query Any idea which band `O=C(O)Cn1c(=O)c2cc(I)ccc2n(Cc2ccc(Br)cc2F)c1=O` is in?
// result III

// query Any idea which band `Cc1c(-c2ccccc2)n(Cc2ccc(Cl)c(Cl)c2)c(=O)n(CC(=O)O)c1=O` is in?
// result I

// query Any idea which band `O=C(O)CN1C(=O)N(Cc2ccc(Cl)c(Cl)c2)Cc2ccccc21` is in?
// result II

// query Any idea which band `O=C(O)Cn1c(=O)c2cc(Cl)ccc2n(Cc2ccc(Br)cc2F)c1=S` is in?
// result I

// query Any idea which band `O=C(O)Cn1c(=O)c2cc(Br)ccc2n(Cc2ccc(F)c(F)c2)c1=O` is in?
// result I

// query Any idea which band O=C(O)CN1C(=O)c2cc(Cl)ccc2N(Cc2ccc(Br)cc2F)[S+]1[O-] (stereo unspecified) is in?
// result I

// query Any idea which band `O=C(O)Cn1c(=O)c2c(Cl)cccc2n(Cc2ccc(Br)cc2F)c1=O` is in?
// result II

// query Any idea which band `O=C(O)Cn1c2ccc(Cl)cc2c(=O)n1Cc1ccc(Cl)c(Cl)c1` is in?
// result II
